Biological target: native human M-CSF (in human serum or in MDA-MB-231 conditioned medium) (human), P09603
Sequence (P09603 33-255): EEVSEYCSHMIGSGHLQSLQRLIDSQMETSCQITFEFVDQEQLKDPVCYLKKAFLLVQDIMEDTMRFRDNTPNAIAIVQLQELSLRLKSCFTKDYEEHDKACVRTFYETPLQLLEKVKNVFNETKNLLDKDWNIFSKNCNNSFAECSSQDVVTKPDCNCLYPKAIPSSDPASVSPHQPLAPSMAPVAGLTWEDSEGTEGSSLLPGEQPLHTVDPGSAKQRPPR
Assay: cell-based or functional assay
attribute measured: IC50, inhibition of M-NFS-60 proliferation induced by human serum (50%) (nM)

binder: Madeleine, IgG1_D265A (antibody, V domains shown) VH: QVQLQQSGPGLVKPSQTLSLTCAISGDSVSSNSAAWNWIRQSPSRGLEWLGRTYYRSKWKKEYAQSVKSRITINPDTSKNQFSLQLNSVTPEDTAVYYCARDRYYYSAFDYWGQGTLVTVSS VL: QSALTQPASVSGSPGQSITISCTGTSSDVGGYNSVSWYQQHPGKAPKLMIYAVSNRPSGVSNRFSGSKSGNTASLTISGLQAEDEADYYCASYDERFTRVFGGGTKLTVLGQ
quantitative result: 0.02

binder: Laurine, IgG1_D265A (antibody, V domains shown) VH: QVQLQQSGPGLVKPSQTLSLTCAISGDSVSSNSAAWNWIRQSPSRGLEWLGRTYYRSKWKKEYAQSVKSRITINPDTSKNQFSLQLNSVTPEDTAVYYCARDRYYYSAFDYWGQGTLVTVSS VL: DIALTQPASVSGSPGQSITISCTGTSSDVGGYNSVSWYQQHPGKAPKLMIYAVSNRPSGVSNRFSGSKSGNTASLTISGLQAEDEADYYCASYDERFTRVFGGGTKLTVLGQ
quantitative result: 0.0156

binder: HeRX1-10G1, IgG1_D265A (antibody, V domains shown) VH: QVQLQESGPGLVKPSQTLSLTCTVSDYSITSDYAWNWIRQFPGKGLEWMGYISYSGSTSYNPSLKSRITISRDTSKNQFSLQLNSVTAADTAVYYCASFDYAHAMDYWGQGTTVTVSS VL: DIVLTQSPAFLSVTPGEKVTFTCQASQSIGTSIHWYQQKTDQAPKLLIKYASESISGIPSRFSGSGSGTDFTLTISSVEAEDAADYYCQQINSWPTTFGGGTKLEIKRT
quantitative result: 0.0124
